# target-or-test-system: human GLP-1 receptor (human, UniProt P43220 24-463)
# assay-notes: cell-based or functional assay
Bridge positions count the residues as written; N and C are the ends. Square brackets hold non-standard residues; d marks the D form. Ends that are not written are not given here. * marks the point of attachment. Acetyl(2-(4-imidazolyl)) = O=C(Cc1c[nH]cn1)*; Aib = CC(C)(N)C(=O)O
quantity: In vitro activity compared to native-type peptide (%), vs GLP-1

In [3]: df
Out[3]:
                                      binder  value_operator  result
 0  Y[Aib]QGTFTSDYSKALDEKAAKDFVNWLLDQHPSSGQPPPSC (bridge 16-20) [triple agonist of SEQ ID NO: 102]               =    23.3
 1  {Acetyl(2-(4-imidazolyl))}-[Aib]QGTFTSDYSICMDEKHQKDFVNWLLNTK (bridge 15-19) [triple agonist of SEQ ID NO: 59]               =    40.3
 2  [Acetyl(2-(4-imidazolyl))]GQGTFTSDLSKQMDSERAREFIEWLKNTGPSSGAPPPSHG [triple agonist of SEQ ID NO: 18]               <     0.1
 3  H[Aib]QGTFTSDCSKYLDERAAQDFVQWLLDGGPSSGAPPPS [triple agonist of SEQ ID NO: 25]               =    82.6
 4  {Acetyl(2-(4-imidazolyl))}-[Aib]QGTFTSDYSKYLDEKRQKEFVQWLLDTC (bridge 15-19) [triple agonist of SEQ ID NO: 82]               =     9.5
 5  {Acetyl(2-(4-imidazolyl))}-[Aib]EGTFTSDYSIAMDEIHQKDFVNWLLAQKC (bridge 15-19) [triple agonist of SEQ ID NO: 90]               =     7.4
 6  H[Aib]QGTFTSDVSSYLDGQAQKEFIAWLVKGC [triple agonist of SEQ ID NO: 2]               =     5.9
 7  Y[Aib]QGTFTSDYSKYLDEKRAKEFVQWLLDCHPSSGQPPPS (bridge 16-20) [triple agonist of SEQ ID NO: 97]               =    10.5
 8  H[Aib]EGTFTSDYSIAMDEIHQKDFVDWLLAEC (bridge 16-20) [triple agonist of SEQ ID NO: 54]               =    30.6
 9  Y[Aib]QGTFTSDYSKYLDECAAKEFVQWLLDHHPSSGQPPPS (bridge 16-20) [triple agonist of SEQ ID NO: 64]               =    64.6
10  [Acetyl(2-(4-imidazolyl))]GEGTFISDYSIQLDEIAVQDFVEWLLAQKPSSGAPPPSHG [triple agonist of SEQ ID NO: 13]               <     0.1
